The measured values listed here are drawn from patent US20210130437A1.

Hi there, I'd appreciate the recorded MFI parental ratio for every entry that follows.
# Study System: T1, CD96 (UniProt P40200 22-585, limits assumed)
# T1 construct: whole, on cells; on transfected cells
# T1 sequence (looked up): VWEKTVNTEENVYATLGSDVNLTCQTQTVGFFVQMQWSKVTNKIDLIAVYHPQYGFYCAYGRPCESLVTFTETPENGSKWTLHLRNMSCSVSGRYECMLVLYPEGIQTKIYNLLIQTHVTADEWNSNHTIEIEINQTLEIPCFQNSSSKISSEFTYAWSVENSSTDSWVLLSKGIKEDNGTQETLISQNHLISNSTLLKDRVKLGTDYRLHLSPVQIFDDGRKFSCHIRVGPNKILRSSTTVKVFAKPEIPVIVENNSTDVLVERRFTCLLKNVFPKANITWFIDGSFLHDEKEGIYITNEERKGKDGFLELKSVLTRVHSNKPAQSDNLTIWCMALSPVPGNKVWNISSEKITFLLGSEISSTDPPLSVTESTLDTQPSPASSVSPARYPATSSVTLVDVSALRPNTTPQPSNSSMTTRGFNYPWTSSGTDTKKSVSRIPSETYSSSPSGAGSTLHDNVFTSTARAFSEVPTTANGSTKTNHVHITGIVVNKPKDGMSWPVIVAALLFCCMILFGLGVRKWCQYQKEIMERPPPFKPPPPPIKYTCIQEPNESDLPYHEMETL
# Assay Notes: flow cytometry, transfected cells
Quick note: give the figure in ratio, leave out the unit.

Would you mind telling me what MFI parental ratio value was observed for variant CD155 IgV-Fc A81V, L83P (Fc fusion, not shown: a dimerising Fc or GST) WPPPGTGDVVVQAPTQVPGFLGDSVTLPCYLQVPNMEVTHVSQLTWARHGESGSMAVFHQTQGPSYSESKRLEFVAARLGVEPRNASLRMFGLRVEDEGNYTCLFVTFPQGSRSVDIWLRVL ? 0.8

Would you mind telling me what MFI parental ratio value was observed for variant CD155 IgV-Fc P18T, F91S, R94H (Fc fusion, not shown: a dimerising Fc or GST) WPPPGTGDVVVQAPTQVTGFLGDSVTLPCYLQVPNMEVTHVSQLTWARHGESGSMAVFHQTQGPSYSESKRLEFVAARLGAELRNASLRMSGLHVEDEGNYTCLFVTFPQGSRSVDIWLRVL ? 0.8

Would you mind telling me what MFI parental ratio value was observed for Wildtype CD155 IgV Fc (Fc fusion, not shown: a dimerising Fc or GST) WPPPGTGDVVVQAPTQVPGFLGDSVTLPCYLQVPNMEVTHVSQLTWARHGESGSMAVFHQTQGPSYSESKRLEFVAARLGAELRNASLRMFGLRVEDEGNYTCLFVTFPQGSRSVDIWLRVL ? 1

Would you mind telling me what MFI parental ratio value was observed for variant CD155 IgV-Fc P18L, L79V, F91S (Fc fusion, not shown: a dimerising Fc or GST) WPPPGTGDVVVQAPTQVLGFLGDSVTLPCYLQVPNMEVTHVSQLTWARHGESGSMAVFHQTQGPSYSESKRLEFVAARVGAELRNASLRMSGLRVEDEGNYTCLFVTFPQGSRSVDIWLRVL ? 1.1
